Recorded viability at 48 h, 25 µM, one value per entry.
# Experiment notes: Cytotoxicity against mouse Hepa-1c1c7 cells assessed as cell survival at 25 uM after 48 hrs by MTT assay
# Assay type: cell-based
# Test parameters: read-out: Activity
API: value field is a number in %; no unit string.

COc1ccc(/C=C2\Oc3cc(OC)cc(OC)c3C2=O)cc1 ... 87

Output measured viability at 48 h, 25 µM for this item: O=C1Oc2ccc(O)cc2/C1=C/c1cccc(F)c1
120

Output measured viability at 48 h, 25 µM for this item: COc1cc(OC)c2c(c1)O/C(=C\c1ccccc1C)C2=O
87

Output measured viability at 48 h, 25 µM for this item: O=C1Oc2ccc(O)cc2/C1=C/c1cccc(O)c1
87

Output measured viability at 48 h, 25 µM for this item: O=C1/C(=C/c2ccc(O)cc2)Oc2cc(O)cc(O)c21
98

Output measured viability at 48 h, 25 µM for this item: COc1cc(OC)c2c(c1)O/C(=C\c1ccc(C#N)cc1)C2=O
95

Output measured viability at 48 h, 25 µM for this item: COc1cc(/C=C2\Oc3cc(O)cc(O)c3C2=O)ccc1O
98

Output measured viability at 48 h, 25 µM for this item: COc1cc(OC)c2c(c1)O/C(=C\c1ccncc1)C2=O
110

Output measured viability at 48 h, 25 µM for this item: COc1cc(OC)c2c(c1)OC(=O)/C2=C\c1ccc(Cl)cc1
110
